Every entry's value here was drawn from a protein production outcome set (Wang et al. 2014).

Experiment description: label from the status in PepcDB records
Recorded metric: protein production

Check out these entries, answers already filled in.
{"Sequence string": "MAEAHVTKVGIVGIGFIGSDHLHRLTKTVANVDVTAVCDIVPGKAQKALDQQGLTATTYEDYHDLVNDPNVEVVVCTANNEAHYEIVMAALKAGKFTFCEKPLALDAKQCMDIIDSEKKLGRRMLQVGFMRHYAPEYVQMKKMIDDGVIGKPLMMDQRHYNQTQPEEYDSSRSIIETAIHEIDIDHWLVNDDYANIRVFSPKQTRHVQNAKIQDPQIVMIETKSGINIINEVFVRCQYGYDIKCDVIGEEGVLELPTVPQVATRLNAQYSTAILTDWKARFESAYDIEFRDFINHVSQNESPVGPSAWDGYIAAVTADAALKSLAEDGAKQDLDFPSTPAFYTESEKVSE", "Recorded metric": "protein production", "Value observed": "failed"}
{"Sequence string": "MDKNNLEDLTGKKILRNGFGGLRLEYGTIFLDVGLFTYIVLILSIFFFLVERWFLGALTFVLHVPLLLLGIWCGER", "Recorded metric": "protein production", "Value observed": "failed"}
{"Sequence string": "MAQTCSILYIPYMLLLSSLFAAGIATITEGELLSSMIGVQGLIYCKRGSKLTPIQGAVARVTCERTDEYGYEAEDVTVLSQATDAKGYFLATLSSSEVKDYKKVIKIKECRAFLELSPSDTCSFPTEINRGISGAILQNYRLLENKLKMKLFTVGPFVFSSEETQDKSIPNGY", "Recorded metric": "protein production", "Value observed": "failed"}
{"Sequence string": "MPSLFSLYRKIFFGRKPGWDQQPLPYIKVTAPNVRVSEAKISQYAQVCGFDFDGKLLPPTYLYVMAFRLHAVIFTHDGITFPLLGMIHLKNRIQVYRPAAVDEVFALECALTTSRETDSGLEFEFVSKAFVGEELVWESLSTYLYRIETAGRRVRPPKALDMAWDSPQSWELGEDLGRRYAKASGDYNLIHLHPMLSKRFGFDRVLAHGMWSKARCLAELMPEIGERPFVVDVAFKLPLLMPAEVGFGYEKTEDKWVFELRDSKGRRPHLSGEVQL", "Recorded metric": "protein production", "Value observed": "failed"}

Record MTMFGKIFSKKTPKTDIKSNGEALNASEIEQFIKDTLSHYISDNFPQGVLAVCQQLSITQKKKITIKLLMPFVCQGELDLLAQTLSENLARTVNFEIDLAIKPVRQFSLGNDKNKAGQEGMLQGKVANIIAIASGKGGVGKSTTTVNLAYALMCEGARVGILDADIYGPSIPSMLGLKNEKPSSSDGKLMTPVDAKGLSAMSIGFLVDEADATVWRGPMASSAFNQLLNETDWPELDYLLIDMPPGTGDIQLTLAQKVPVAAAVIVTTPQDIALIDAVKGIAMFDKVKVPVLGIVENMSYHLCENCGHKSHIFGEAGGEHMAEDHETKLLGQLPLDITIRQDADFGESDIIENSAGEIANHYRKIARNVSAQLFLQCDTASPLTATVAHKALEHHHHHH . Reported protein production: not failed

Record MASYYEILDVPRSASADDIKKAYRRKALQWHPDKNPDNKEFAEKKFKEVAEAYEVLSDKHKREIYDRYGREGLTGTGTGPSRAEAGSGGPGFTFTFRSPEEVFREFFGSGDPFAELFDDLGPFSELQNRGSRHSGPFFTFSSSFPGHSDFSSSSFSFSPGAGAFRSVSTSTTFVQGRRITTRRIMENGQERVEVEEDGQLKSVTINGVPDDLALGLELSRREQQPSVTSRSGGTQVQQTPASCPLDSDLSEDEDLQLAMAYSLSEMEAAGKKPAGGREAQHRRQGRPKAQHQDPGLGGTQEGARGEATKRSPSPEEKASRCLIL . Reported protein production: not failed

Record AKGSMIQFDAPDGKKANAYMVKASSPSTKYVFLIHEWWGLNDYIKKDADKLYADLGGNVNIMALDLYDGKVTANRDSAAAYMGAASATRIGSILNGAFMFAGDKAEIISMGWCFGGGWALQSSILAGNKSKGTIMYYGMTEKDPVKLAGLKGDVLGIFGSKDKWINPEMVAAFDKDLTAAGKKHTIKSFDADHAFANPSNPQFNKAYTEEAWGMSVAFIKKAFG . Reported protein production: failed

Record MMQSITTFMAALGKYDFLQSALITAIMVGVMSGIIGSFIILRGMSMMGDAISHAVLPGVAVAYMLGINVLIGASVFGILAASLIGFVASRSKIKTDTSIGIVFSAFYALGFILISLAESSTNLHHILFGNILAVSDTDMMTTTVVLGLVILFVAFFYKELLITSFDPTFAKTYGLKVQLLHYALMLVLTLVTVSALQTVGIILVVAMLITPAATAFLWTERLAVMLGLSALIGVLSSVVGLYLSYTLNWASGPAIVLVAAIFFGISFIISPKQALLPTLWKGQAAARRVTA . Reported protein production: failed

Record IVPDAQDLGKSYGIRPSFIIAQAALDSDFGEKILANKYHNLFGLLAEPGTPSITLNDSSTGKKQEKQFTHYKSWKYSMYDYLAHIKSGATGKKDSYTIMVSVKNPKTLVQKLQDSGFDNDKKYAKKMTEIIDLYDLTRYDK . Reported protein production: failed

Record MSRYRLREHAWCLRQLNVSNKSFLKRSFLVGLGYTPPIRYFIDIGPLPNWTRKEVNELILGRTRVRSPILKLLIELFVHRICSDPRFQVKSSSVNA . Reported protein production: failed
